Target: DNA gyrase subunit B (Mycobacterium smegmatis, UniProt P0C559)
Sequence (P0C559 whole entry): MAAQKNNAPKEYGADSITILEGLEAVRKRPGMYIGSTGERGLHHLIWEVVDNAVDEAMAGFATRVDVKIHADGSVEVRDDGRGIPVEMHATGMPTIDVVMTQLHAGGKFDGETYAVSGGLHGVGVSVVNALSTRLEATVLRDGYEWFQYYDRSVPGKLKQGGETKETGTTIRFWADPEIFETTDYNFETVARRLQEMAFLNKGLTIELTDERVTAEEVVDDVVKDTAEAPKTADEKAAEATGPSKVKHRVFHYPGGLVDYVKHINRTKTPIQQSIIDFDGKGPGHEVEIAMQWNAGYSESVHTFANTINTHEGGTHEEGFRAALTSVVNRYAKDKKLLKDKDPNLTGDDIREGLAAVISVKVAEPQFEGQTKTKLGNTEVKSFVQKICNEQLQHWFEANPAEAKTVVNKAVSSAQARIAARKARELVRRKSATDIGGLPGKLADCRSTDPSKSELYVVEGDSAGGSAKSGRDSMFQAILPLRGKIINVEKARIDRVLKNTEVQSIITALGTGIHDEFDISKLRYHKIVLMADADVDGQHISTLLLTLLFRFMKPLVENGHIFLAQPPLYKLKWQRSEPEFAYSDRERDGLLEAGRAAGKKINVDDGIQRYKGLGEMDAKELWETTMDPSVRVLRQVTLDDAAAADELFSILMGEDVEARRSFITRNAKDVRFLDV
Assay: Inhibition of Mycobacterium smegmatis DNA gyrase B expressed in Escherichia coli BL21 (DE3) pLysS cells assessed as reduction in ATPase activity incubated for 100 mins by inorganic phosphate detection assay
Parameters: species or system Mycolicibacterium smegmatis
Below: a set of entries, each annotated with reported pIC50.
Please note pIC50 is a logarithmic value: minus log10 of concentration in mol/L. Answer with that number alone.

The examples below pair each entry with its known result.
>>> reported_measurement("CCN1CCN(CCCOc2ccc(Nc3c(C(=O)O)cnc4ccc(F)cc34)cc2)CC1")
5.17
>>> reported_measurement("CCN1CCN(CCCOc2ccc(Nc3c(C(=O)O)cnc4ccc(C(F)(F)F)cc34)cc2)CC1")
5.10
>>> reported_measurement("CCOC(=O)c1cnc2ccc(F)cc2c1Nc1ccc(NCCCN2CCN(CC)CC2)cc1")
4.77

Recorded result, CCN1CCN(CCCNc2ccc(Nc3c(C(=O)NN)cnc4ccccc34)cc2)CC1 , pIC50: 4.97

CCOC(=O)c1cnc2ccc(OC)cc2c1Nc1ccc(OCCCN2CCOCC2)cc1 has a reported pIC50 of 4.83

Summary for this compound, CCN1CCN(CCCNc2ccc(Nc3c(C(=O)O)cnc4ccccc34)cc2)CC1 : pIC50 is 4.95

* * *

Experiment: Cytotoxicity against mouse RAW264.7 cells assessed as inhibition of cell viability at 50 uM incubated for 48 hrs at 37 degC by MTT assay relative to control
Assay type: cell-based
Settings: read-out: INH
cytotoxicity at 48 h, 50 µM class ranges: bottom bin: < 10%; middle bin: ≥ 10% and < 20%; top bin: ≥ 20%

>>> assigned_class("CCN1CCN(CCCNc2ccc(Nc3c(C(=O)O)cnc4ccccc34)cc2)CC1")
"top bin"
>>> assigned_class("CCOC(=O)c1cnc2ccccc2c1Nc1ccc(NCCCN2CCOCC2)cc1")
"bottom bin"
>>> assigned_class("CCN1CCN(CCCOc2ccc(Nc3c(C(=O)O)cnc4ccc(F)cc34)cc2)CC1")
"top bin"
>>> assigned_class("NNC(=O)c1cnc2ccccc2c1Nc1ccc(OCCCN2CCOCC2)cc1")
"top bin"
>>> assigned_class("COc1ccc2ncc(C(=O)NN)c(Nc3ccc(OCCCN4CCOCC4)cc3)c2c1")
"bottom bin"

Dear colleague, I would appreciate it if you could identify the bin for O=C(O)c1cnc2ccc(C(F)(F)F)cc2c1Nc1ccc(OCCCN2CCOCC2)cc1 and reply at your convenience.
top bin

Which category does the recorded cytotoxicity at 48 h, 50 µM put CCN1CCN(CCCOc2ccc(Nc3c(C(=O)O)cnc4ccc(C(F)(F)F)cc34)cc2)CC1 in?
middle bin

Which bin, given its cytotoxicity at 48 h, 50 µM, does NNC(=O)c1cnc2ccccc2c1Nc1ccc(NCCCN2CCOCC2)cc1 occupy?
bottom bin

For O=C(O)c1cnc2ccc(F)cc2c1Nc1ccc(OCCCN2CCOCC2)cc1 , which cytotoxicity at 48 h, 50 µM bin applies?
middle bin

Which bin should I file COc1ccc2ncc(C(=O)O)c(Nc3ccc(OCCCN4CCOCC4)cc3)c2c1 under?
middle bin

* * *

# cytotoxicity at 48 h, 50 µM per entry
Test: Cytotoxicity against mouse RAW264.7 cells assessed as inhibition of cell viability at 50 uM incubated for 48 hrs at 37 degC by MTT assay relative to control
Format: cell-based
Details: read-out: INH
Give your result in % as a bare value.

Recorded cytotoxicity at 48 h, 50 µM, per entry:
>>> reported_measurement("CCN1CCN(CCCOc2ccc(Nc3c(C(=O)NN)cnc4ccc(OC)cc34)cc2)CC1")
2.72
>>> reported_measurement("O=C(O)c1cnc2ccc(F)cc2c1Nc1ccc(NCCCN2CCOCC2)cc1")
13.1
>>> reported_measurement("CCOC(=O)c1cnc2ccc(OC)cc2c1Nc1ccc(OCCCN2CCOCC2)cc1")
21.2
>>> reported_measurement("NNC(=O)c1cnc2ccc(F)cc2c1Nc1ccc(NCCCN2CCOCC2)cc1")
29.1
>>> reported_measurement("CCOC(=O)c1cnc2ccc(OC)cc2c1Nc1ccc(NCCCN2CCN(CC)CC2)cc1")
21.4

API: the following record is the query input.
// recorded cytotoxicity at 48 h, 50 µM for CCOC(=O)c1cnc2ccc(OC)cc2c1Nc1ccc(NCCCN2CCOCC2)cc1 : 19.3

* * *

Biological target: DNA gyrase subunit A/DNA gyrase subunit B (Mycobacterium tuberculosis (strain ATCC 25618 / H37Rv), UniProt P9WG45+P9WG47)
Sequence (P9WG45 whole entry): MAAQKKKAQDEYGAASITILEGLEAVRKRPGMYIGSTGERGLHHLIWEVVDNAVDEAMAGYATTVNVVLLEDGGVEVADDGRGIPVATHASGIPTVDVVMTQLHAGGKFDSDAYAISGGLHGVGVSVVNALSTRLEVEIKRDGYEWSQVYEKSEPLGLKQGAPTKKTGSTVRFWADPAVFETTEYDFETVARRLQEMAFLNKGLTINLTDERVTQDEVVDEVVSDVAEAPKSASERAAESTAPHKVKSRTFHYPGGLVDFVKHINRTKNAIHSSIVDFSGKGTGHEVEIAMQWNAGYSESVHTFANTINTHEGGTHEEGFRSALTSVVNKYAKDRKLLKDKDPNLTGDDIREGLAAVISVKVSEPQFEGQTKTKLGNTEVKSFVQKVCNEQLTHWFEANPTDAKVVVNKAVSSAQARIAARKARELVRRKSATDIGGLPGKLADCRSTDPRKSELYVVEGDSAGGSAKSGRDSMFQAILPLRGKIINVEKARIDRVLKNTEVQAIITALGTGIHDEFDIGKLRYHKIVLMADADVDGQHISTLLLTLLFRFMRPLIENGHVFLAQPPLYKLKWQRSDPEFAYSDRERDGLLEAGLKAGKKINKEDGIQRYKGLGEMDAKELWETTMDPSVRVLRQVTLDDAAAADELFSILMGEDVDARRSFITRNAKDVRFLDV
Sequence (P9WG47 whole entry): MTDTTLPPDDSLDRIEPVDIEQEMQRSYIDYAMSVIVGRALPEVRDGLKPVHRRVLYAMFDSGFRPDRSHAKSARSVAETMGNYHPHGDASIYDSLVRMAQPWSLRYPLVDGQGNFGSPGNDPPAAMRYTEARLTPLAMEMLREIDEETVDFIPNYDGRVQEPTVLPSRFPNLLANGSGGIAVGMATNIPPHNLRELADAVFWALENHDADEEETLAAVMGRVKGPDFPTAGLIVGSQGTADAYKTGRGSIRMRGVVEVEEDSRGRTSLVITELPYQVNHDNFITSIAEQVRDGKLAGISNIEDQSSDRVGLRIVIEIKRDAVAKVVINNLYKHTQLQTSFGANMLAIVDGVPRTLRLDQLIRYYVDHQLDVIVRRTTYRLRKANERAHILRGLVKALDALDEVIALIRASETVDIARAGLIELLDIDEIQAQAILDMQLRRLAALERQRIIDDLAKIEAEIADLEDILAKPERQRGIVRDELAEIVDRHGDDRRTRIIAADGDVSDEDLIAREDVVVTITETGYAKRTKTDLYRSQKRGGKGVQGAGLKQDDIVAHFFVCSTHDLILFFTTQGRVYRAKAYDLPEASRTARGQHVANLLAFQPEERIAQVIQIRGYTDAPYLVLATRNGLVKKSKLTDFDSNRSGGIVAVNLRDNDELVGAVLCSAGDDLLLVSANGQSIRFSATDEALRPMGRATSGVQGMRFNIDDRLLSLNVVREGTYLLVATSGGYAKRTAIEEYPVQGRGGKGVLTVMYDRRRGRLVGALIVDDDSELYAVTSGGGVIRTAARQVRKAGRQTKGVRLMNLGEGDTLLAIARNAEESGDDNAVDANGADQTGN
Assay: Inhibition of DNA gyrase GyrA/GyrB in Mycobacterium tuberculosis incubated for 30 mins assessed as reduction in supercoiling of relaxed relaxed pBR322 DNA by ethidium bromide staining based agarose gel electrophoresis method
Listed compounds paired with reported IC50
Report the figure in µM without appending any unit label.

Here are 2 compounds together with their reported answers.
>>> reported_measurement("CCN1CCN(CCCOc2ccc(Nc3c(C(=O)NN)cnc4ccc(F)cc34)cc2)CC1")
2.96
>>> reported_measurement("O=C(O)c1cnc2ccc(C(F)(F)F)cc2c1Nc1ccc(OCCCN2CCOCC2)cc1")
14.3

# compound CCOC(=O)c1cnc2ccc(OC)cc2c1Nc1ccc(NCCCN2CCOCC2)cc1 ; its IC50 = 9.32

Recorded result, COc1ccc2ncc(C(=O)O)c(Nc3ccc(NCCCN4CCOCC4)cc3)c2c1 , IC50: 12.6

CCOC(=O)c1cnc2ccc(C(F)(F)F)cc2c1Nc1ccc(OCCCN2CCN(CC)CC2)cc1 has a reported IC50 of 0.69

Documented IC50 of CCN1CCN(CCCOc2ccc(Nc3c(C(=O)O)cnc4ccc(OC)cc34)cc2)CC1 : 0.63

Noted for CCOC(=O)c1cnc2ccccc2c1Nc1ccc(OCCCN2CCOCC2)cc1 : its IC50 reads 7.53

GET /value?item= O=C(O)c1cnc2ccc(C(F)(F)F)cc2c1Nc1ccc(NCCCN2CCOCC2)cc1 &field=IC50 returns 3.77

* * *

Experiment: Cytotoxicity against mouse RAW264.7 cells assessed as inhibition of cell viability at 50 uM incubated for 48 hrs at 37 degC by MTT assay relative to control
Assay type: cell-based
Conditions: read-out: INH
property_name: cytotoxicity at 48 h, 50 µM (%)
Just the number in %, nothing appended.

// worked examples, cytotoxicity at 48 h, 50 µM included
>>> reported_measurement("CCOC(=O)c1cnc2ccc(C(F)(F)F)cc2c1Nc1ccc(OCCCN2CCOCC2)cc1")
20.2
>>> reported_measurement("CCOC(=O)c1cnc2ccc(C(F)(F)F)cc2c1Nc1ccc(NCCCN2CCOCC2)cc1")
20.2
>>> reported_measurement("CCOC(=O)c1cnc2ccc(C(F)(F)F)cc2c1Nc1ccc(NCCCN2CCN(CC)CC2)cc1")
20.1

The value of cytotoxicity at 48 h, 50 µM measured for the molecule CCOC(=O)c1cnc2ccc(F)cc2c1Nc1ccc(NCCCN2CCOCC2)cc1 turned out to be 19.6

Recorded cytotoxicity at 48 h, 50 µM (molecule CCOC(=O)c1cnc2ccccc2c1Nc1ccc(NCCCN2CCN(CC)CC2)cc1 ): 20.4

* * *

Molecular target: DNA gyrase subunit B (Mycobacterium smegmatis)
Assay: Inhibition of Mycobacterium smegmatis DNA gyrase B expressed in Escherichia coli BL21 (DE3) pLysS cells assessed as reduction in ATPase activity incubated for 100 mins by inorganic phosphate detection assay
pIC50: −log10 of the molar value.
Lab note: anything with pIC50 at or over 5 counts as TRUE; the rest go in FALSE.

Solved cases below.
>>> assigned_class("CCOC(=O)c1cnc2ccc(OC)cc2c1Nc1ccc(OCCCN2CCN(CC)CC2)cc1")
"FALSE"
>>> assigned_class("CCN1CCN(CCCOc2ccc(Nc3c(C(=O)O)cnc4ccc(OC)cc34)cc2)CC1")
"TRUE"
>>> assigned_class("COc1ccc2ncc(C(=O)O)c(Nc3ccc(NCCCN4CCOCC4)cc3)c2c1")
"FALSE"
>>> assigned_class("CCN1CCN(CCCNc2ccc(Nc3c(C(=O)NN)cnc4ccc(C(F)(F)F)cc34)cc2)CC1")
"FALSE"
>>> assigned_class("CCN1CCN(CCCOc2ccc(Nc3c(C(=O)O)cnc4ccccc34)cc2)CC1")
"FALSE"
>>> assigned_class("O=C(O)c1cnc2ccc(F)cc2c1Nc1ccc(NCCCN2CCOCC2)cc1")
"FALSE"
>>> assigned_class("O=C(O)c1cnc2ccccc2c1Nc1ccc(OCCCN2CCOCC2)cc1")
"FALSE"
>>> assigned_class("COc1ccc2ncc(C(=O)O)c(Nc3ccc(OCCCN4CCOCC4)cc3)c2c1")
"FALSE"

Is it the case that CCN1CCN(CCCOc2ccc(Nc3c(C(=O)NN)cnc4ccc(F)cc34)cc2)CC1 has pIC50 reaching or exceeding 5?
TRUE

Kindly determine if pIC50 recorded for NNC(=O)c1cnc2ccc(C(F)(F)F)cc2c1Nc1ccc(NCCCN2CCOCC2)cc1 is above or exactly 5.
FALSE

* * *

Biological target: DNA gyrase subunit A/DNA gyrase subunit B (Mycobacterium tuberculosis (strain ATCC 25618 / H37Rv), UniProt P9WG45+P9WG47)
Experiment: Inhibition of DNA gyrase GyrA/GyrB in Mycobacterium tuberculosis incubated for 30 mins assessed as reduction in supercoiling of relaxed relaxed pBR322 DNA by ethidium bromide staining based agarose gel electrophoresis method
property_name: log10 IC50 (log10 of the value in µM)
Friendly reminder: values = log10 of IC50, unit µM.

>>> reported_measurement("CCN1CCN(CCCOc2ccc(Nc3c(C(=O)O)cnc4ccc(F)cc34)cc2)CC1")
0.78
>>> reported_measurement("O=C(O)c1cnc2ccc(F)cc2c1Nc1ccc(OCCCN2CCOCC2)cc1")
1.23
>>> reported_measurement("CCOC(=O)c1cnc2ccc(OC)cc2c1Nc1ccc(OCCCN2CCN(CC)CC2)cc1")
0.84
>>> reported_measurement("CCN1CCN(CCCOc2ccc(Nc3c(C(=O)NN)cnc4ccccc34)cc2)CC1")
1.22
>>> reported_measurement("CCN1CCN(CCCNc2ccc(Nc3c(C(=O)NN)cnc4ccc(C(F)(F)F)cc34)cc2)CC1")
1.04

Value of log10 IC50 reported for the compound CCOC(=O)c1cnc2ccccc2c1Nc1ccc(OCCCN2CCN(CC)CC2)cc1 is 1.38

Value of log10 IC50 reported for the compound CCOC(=O)c1cnc2ccccc2c1Nc1ccc(NCCCN2CCN(CC)CC2)cc1 is 0.51

Looking up NNC(=O)c1cnc2ccc(C(F)(F)F)cc2c1Nc1ccc(OCCCN2CCOCC2)cc1 , I found its log10 IC50 recorded as 1.30

log10 IC50 measured on COc1ccc2ncc(C(=O)O)c(Nc3ccc(OCCCN4CCOCC4)cc3)c2c1 = 1.11

compound CCN1CCN(CCCNc2ccc(Nc3c(C(=O)O)cnc4ccccc34)cc2)CC1 , log10 IC50 observed: 0.77

According to the records, this compound CCOC(=O)c1cnc2ccc(C(F)(F)F)cc2c1Nc1ccc(OCCCN2CCOCC2)cc1 displays log10 IC50 of 1.21

Value of log10 IC50 reported for the compound NNC(=O)c1cnc2ccc(C(F)(F)F)cc2c1Nc1ccc(NCCCN2CCOCC2)cc1 is 1.30

Record summary for CCN1CCN(CCCOc2ccc(Nc3c(C(=O)O)cnc4ccc(C(F)(F)F)cc34)cc2)CC1 : reported log10 IC50 = 0.55
